Where these numbers come from: the supplement of paper PMC5919970

// values below are reported fractional viability
- Tested on: TYKNU
- protocol details: fractional viability relative to vehicle; higher = less growth inhibition
- conditions used: 10uM; 72 h; genotype: DNM1L knockout (sgDNM1L #1)
Counter-ions that a name gives are not always drawn. Over roughly 2,000 compounds, “fractional viability relative to vehicle” has its median near 0.91; the lowest 2% begin near 0.045. This excerpt belongs to a sample that is enriched for the lowest values.
# respond with the number and nothing more

Would you please look over these solved cases?
compound	test target	numeric result
CCN(CC)CCCC(C)Nc1nc(C)cc(Nc2ccc3nc(C)cc(N)c3c2)n1 (stereo not drawn)	TYKNU	0.802
C[C@@]1(C(=O)Nc2ccc(F)nc2)CCCN1c1nc(Nc2cc(C3CC3)n[nH]2)c2cccn2n1	TYKNU	0.282
Cc1cc(Nc2ccc(NC(=O)c3ccc(Nc4ccnc5ccccc45)cc3)cc2)nc(N)n1	TYKNU	0.0121
CNCc1ccc(C)c(NC(=O)c2ccc(Nc3nc(-c4ccccc4)c4ccccc4n3)cc2)c1	TYKNU	0.0487
CC(C)NC[C@H](O)COc1ccc(CCOCC2CC2)cc1 [Levobetaxolol HCl]	TYKNU	0.846

stdin: Look up fractional viability: CC(C)(C)C#Cc1cc(N(C(=O)[C@H]2CC[C@H](C)CC2)[C@H]2CC[C@H](O)CC2)c(C(=O)O)s1 [VX-222 (VCH-222, Lomibuvir)]
stdout: 0.818

stdin: Look up fractional viability: C[C@@H]1COCCN1c1cc(C2([S@](C)(=N)=O)CC2)nc(-c2cc[nH]c3nccc2-3)n1
stdout: 0.136

stdin: Look up fractional viability: CC(=O)Nc1ccc(C(=O)Nc2ccccc2N)cc1 [CI994 (Tacedinaline)]
stdout: 0.456

====

- System: TYKNU
- protocol details: fractional viability relative to vehicle; higher = less growth inhibition
- conditions used: 10uM; 72 h; genotype: sgCTRLA1 (non-targeting control)
Whole data set: some 2,000 compounds, median “fractional viability relative to vehicle” near 0.91, cut for the lowest 2% near 0.045. The sample as a whole holds a higher share of the lowest values than the screen did.
Under this convention, True denotes fractional viability strictly below 0.2 and False denotes fractional viability at or above 0.2.

These solved cases illustrate the format of a correct answer.
compound	label class
CCOc1ccc(Cc2cc([C@@H]3O[C@H](SC)[C@@H](O)[C@H](O)[C@H]3O)ccc2Cl)cc1	False
CC(C)CCNC(=O)[C@H](CC(C)C)NC(=O)[C@H]1O[C@@H]1C(=O)O [Loxistatin Acid (E-64C)]	False
O=C(c1ccccc1)c1ccc2nc(NC(=O)c3csc(C4CCN(c5ncnc6ccsc56)CC4)n3)[nH]c2c1	False
CC(=O)Oc1ccccc1C(=O)O	False
CC1(C)CC[C@]2(NC(=O)C(C)(F)F)CC[C@]3(C)[C@H](C(=O)C=C4[C@@]5(C)C=C(C#N)C(=O)C(C)(C)[C@@H]5CC[C@]43C)[C@@H]2C1 [Omaveloxolone (RTA-408)]	True
CC(=O)OCOC(=O)CN(CC(=O)OCOC(C)=O)c1ccccc1OCCOc1ccccc1N(CC(=O)OCOC(C)=O)CC(=O)OCOC(C)=O	True

stdin: Strictly below 0.2 in fractional viability? COc1ccc(C(=O)CC2(O)C(=O)Nc3c(Cl)ccc(Cl)c32)cc1 (stereo not drawn)
stdout: True

stdin: Strictly below 0.2 in fractional viability? COc1ccc(CNC(=O)Nc2ncc([N+](=O)[O-])s2)cc1
stdout: False

====

- Tested on: TYKNU
- protocol details: fractional viability relative to vehicle; higher = less growth inhibition
- conditions used: 10uM; 72 h; genotype: DNM1L knockout (sgDNM1L #1)
Over roughly 2,000 compounds, “fractional viability relative to vehicle” has its median near 0.91; the lowest 2% begin near 0.045. The sample holds the lowest values, similar compounds and a random draw of the others, so the mix is not that of the screen.
Under this convention, Satisfied denotes fractional viability strictly below 0.3 and Not satisfied denotes fractional viability at or above 0.3.

compound	test target	label class
CCOC(=O)c1cnc2ccc(-c3cncc(NS(=O)(=O)c4ccccc4)c3)cn12	TYKNU	Satisfied
OC(CNCC(O)C1CCc2cc(F)ccc2O1)C1CCc2cc(F)ccc2O1 (centres undefined) [Nebivolol]	TYKNU	Satisfied
CCC1C/C(=C\c2cccnc2)C(=O)/C(=C/c2cccnc2)C1 (centres undefined)	TYKNU	Satisfied
CC(C)NCCCn1c(Sc2cc3c(cc2I)OCO3)nc2c(N)ncnc21	TYKNU	Satisfied
CC[C@H](Nc1ncnc2[nH]cnc12)c1nc2cccc(F)c2c(=O)n1-c1ccccc1 [CAL-101 (Idelalisib, GS-1101)]	TYKNU	Not satisfied
COc1cc2c(Oc3ccc(NC(=O)C4(C(=O)Nc5ccc(F)cc5)CC4)cc3F)ccnc2cc1OCCCN1CCOCC1	TYKNU	Satisfied

stdin: Strictly below 0.3 in fractional viability? O=C1CCC[C@@H]2[C@H]3CCC[N+]4([O-])CCC[C@@H](CN12)[C@@H]34 (some centres undefined) [Oxymatrine]
stdout: Not satisfied

stdin: Strictly below 0.3 in fractional viability? COc1cc2nccc(Oc3ccc(NC(=O)C4(C(=O)Nc5ccc(F)cc5)CC4)cc3)c2cc1OC
stdout: Not satisfied

stdin: Strictly below 0.3 in fractional viability? COc1ccc(C(=O)CC2(O)C(=O)Nc3c(Cl)ccc(Cl)c32)cc1 (centres undefined)
stdout: Satisfied

====

- Tested on: TYKNU
- protocol details: fractional viability relative to vehicle; higher = less growth inhibition
- conditions used: 10uM; 72 h; genotype: DNM1L knockout (sgDNM1L #1)
In all, about 2,000 compounds were measured (“fractional viability relative to vehicle”: median about 0.91, lowest 2% from about 0.045 on). For the sample, the lowest values were picked, then their nearest neighbours and some compounds at random.
reported property: fractional viability
# respond with the number and nothing more

compound	numeric result
CC(C)(C)C(=O)Nc1ccc2c(c1)C(=O)C(=O)c1ccccc1-2	0.0236
COc1ccc2c(c1)CCC1C2CCC2(C)C(NCCCCCCN3C(=O)C=CC3=O)CCC12 (centres undefined)	0.942
CN1CCN(Cc2ccc(Nc3ncc(Cl)c(Nc4ccccc4S(=O)(=O)N(C)C)n3)cc2)CC1	0.234

Okay, now this compound:
stdin: Look up fractional viability: Cc1cc(Nc2ncc(Cl)c(Nc3ccccc3S(=O)(=O)C(C)C)n2)c(OC(C)C)cc1C1CCNCC1
stdout: 0.026

====

- Test system: TYKNU
- protocol details: fractional viability relative to vehicle; higher = less growth inhibition
- conditions used: 10uM; 72 h; genotype: DNM1L knockout (sgDNM1L #1)
Counter-ions that a name gives are not always drawn. In all, about 2,000 compounds were measured (“fractional viability relative to vehicle”: median about 0.91, lowest 2% from about 0.045 on). The full list was thinned out, with the lowest values kept by preference.
Under this convention, y denotes fractional viability strictly below 0.6 and n denotes fractional viability at or above 0.6.

compound	test target	label class
Cc1cc(C)c(CNC(=O)c2cc(-c3ccc(N4CCN(C)CC4)nc3)cc3c2c(C)cn3C(C)C)c(=O)[nH]1	TYKNU	n
NC(=O)[C@@H](CCC(F)(F)F)N(Cc1ccc(-c2ncon2)cc1F)S(=O)(=O)c1ccc(Cl)cc1	TYKNU	n

stdin: Strictly below 0.6 in fractional viability? CNCc1ccc(-c2cc(-c3nc(-c4ccc(S(=O)(=O)C(C)C)cc4)cnc3N)on2)cc1
stdout: n

stdin: Strictly below 0.6 in fractional viability? CC1(C)CCC2=C(O1)c1ccccc1C(=O)C2=O [Beta-Lapachone]
stdout: y

stdin: Strictly below 0.6 in fractional viability? COc1cccc2c1C(=O)c1c(O)c3c(c(O)c1C2=O)C[C@@](O)(C(C)=O)C[C@@H]3O[C@H]1C[C@H](N)[C@H](O)[C@H](C)O1 [Daunorubicin HCl]
stdout: y

stdin: Strictly below 0.6 in fractional viability? COc1cccc(-n2c(=O)[nH]c3cc(Cl)n(-c4ccc(-c5cccc(OC)c5O)cc4)c3c2=O)c1
stdout: n

stdin: Strictly below 0.6 in fractional viability? O=C1N=C(O)NC1(c1ccccc1)c1ccccc1 [Phenytoin sodium]
stdout: n

stdin: Strictly below 0.6 in fractional viability? C[N+](C)(C)CCO.[Cl-] [Choline Chloride]
stdout: n

====

- System: TYKNU
- protocol details: fractional viability relative to vehicle; TYKNU is a high-grade serous ovarian cancer line; higher = less growth inhibition
- conditions used: 2uM; 72 h; genotype: DNM1L knockout (sgDNM1L #1)
Counter-ions that a name gives are not always drawn. The full ranking holds about 2,000 compounds; the median of “fractional viability relative to vehicle” is about 0.91, and the lowest 2% start at about 0.045. The sample as a whole holds a higher share of the lowest values than the screen did.
reported property: fractional viability

Would you please look over these solved cases?
molecule	result
O=C(N/N=C/c1ccc([N+](=O)[O-])o1)c1ccc(O)cc1 [Nifuroxazide]	0.378
COc1cccc2c1C(=O)c1c(O)c3c(c(O)c1C2=O)C[C@@](O)(C(C)=O)C[C@@H]3O[C@H]1C[C@H](N)[C@H](O)[C@H](C)O1 [Daunorubicin HCl]	0.392
COc1cc2nc(N3CCN(C(=O)C4CCCO4)CC3)nc(N)c2cc1OC (centres undefined) [Terazosin HCl]	1.17
C[N+](C)(C)CCO.[Cl-] [Choline Chloride]	0.782

stdin: Look up fractional viability: CC(=O)[C@]1(O)Cc2c(O)c3c(c(O)c2[C@@H](O[C@H]2C[C@H](N)[C@H](O)[C@H](C)O2)C1)C(=O)c1ccccc1C3=O [Idarubicin HCl]
stdout: 0.362

stdin: Look up fractional viability: O=C(c1ccc(F)c(F)c1Nc1ccc(I)cc1F)N1CC(O)([C@@H]2CCCCN2)C1
stdout: 0.814

stdin: Look up fractional viability: CC(C)CCNC(=O)[C@H](CC(C)C)NC(=O)[C@H]1O[C@@H]1C(=O)O [Loxistatin Acid (E-64C)]
stdout: 0.865

stdin: Look up fractional viability: O=C(NNc1ccccc1)c1ccncc1
stdout: 0.723

stdin: Look up fractional viability: Cc1nn(C)c2c1C(c1ccc(C(F)(F)F)cc1)C(C#N)=C(N)O2 (centres undefined)
stdout: 0.924

stdin: Look up fractional viability: c1ccc(Cn2c(-c3ccc(OC[C@H](C4CCNCC4)n4c(-c5ccccc5)nc5ccccc54)cc3)nc3ccccc32)cc1
stdout: 0.887
